Procedure Summary: probe aLefty2 binding to arrayed compounds – biochemical, biotinylated probe, 635/667 nm fluorescence, primary screen (AID 1094);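 note: score merges spot fluorescence near 667 nm with spot signal-to-noise ratio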
Assay Setup: small-molecule microarray, higher = more signal
Values of composite z-score greater than or equal to -0.1 map to Condition met; values below map to Condition not met.

Hello, I need to know if "COc1cc2c(cc1O)C=[N+](Cc1sc3ccccc3c1Cl)CC2" has measured composite z-score not below -0.1. Thanks!
Condition met

Hello, I need to know if "COCCOC(=O)N1C(=O)[C@@]2(c3cc(C#CC4=CCCCC4)ccc31)[C@H](c1ccccc1OCCO)N1[C@H](c3ccccc3)[C@H](c3ccccc3)OC(=O)[C@H]1[C@@H]2C(=O)N1CCN(c2ncccn2)CC1" has measured composite z-score not below -0.1. Thanks!
Condition not met

Hello, I need to know if "C#CCN([C@@H](Cc1ccccc1)C(=O)OC)[C@@H](/C=C/C1CC1)[C@H](O)Cc1ccccc1" has measured composite z-score not below -0.1. Thanks!
Condition met

Hello, I need to know if "COCCOC(=O)N1C(=O)[C@@]2(c3ccccc31)[C@H](c1ccc(O)cc1)N1[C@H](c3ccccc3)[C@H](c3ccccc3)OC(=O)[C@H]1[C@@H]2C(=O)N1CCN(c2ncccn2)CC1" has measured composite z-score not below -0.1. Thanks!
Condition met

Hello, I need to know if "O=C1C[C@]2(c3ccc([N+](=O)[O-])cc3)C(=O)N(C3CC3)c3cc(CO)ccc3[C@H]2N1CC12CC3CC(CC(C3)C1)C2" has measured composite z-score not below -0.1. Thanks!
Condition not met

Hello, I need to know if CC(C)C(CO)N1C(=O)[C@@H]2[C@H]3C(=O)OCC=C[C@H]3OC23C=CCN(c2ccc(Cl)cc2)C(=O)[C@@H]13 (some centres not stated) has measured composite z-score not below -0.1. Thanks!
Condition not met

Hello, I need to know if COc1cc2c(cc1O)C(c1cccs1)N(Cc1cc3c(cc1Br)OCO3)CC2 (configuration not stated) has measured composite z-score not below -0.1. Thanks!
Condition met

---

Please provide measured z-score for the entries that follow.
Procedure Summary: compound effects on differentiated 3T3-L1 adipocyte viability – cell-based, 3T3-L1 adipocytes, calcein-AM fluorescence, 48 h, basal, profiling panel (AID 1163); note: test concentration not given here
Assay Setup: 3T3-L1 adipocytes viability, higher = more signal
API doc: respond with a numeric literal and nothing else, no unit.

Value lookup for z-score; key = "COc1ccc(C#Cc2ccc3c(c2)[C@]2(C(=O)N3)[C@H](C(=O)O)[C@H]3C(=O)O[C@H](c4ccccc4)[C@H](c4ccccc4)N3[C@@H]2c2ccc(O)cc2)cc1"
1.65

Value lookup for z-score; key = "COC(=O)[C@@]1(Cc2ccc(OC)cc2)[C@H]2c3cc(C(=O)N4CCCC4)n(CCc4c[nH]c5ccc(O)cc45)c3C[C@H]2CN1C(=O)c1ccccc1"
-0.226

Value lookup for z-score; key = CC(C)N1CC=CC23O[C@@H]4C=CCCOC(=O)C4[C@H]2C(=O)N(CCCO)[C@@H]3C1=O (stereo partly drawn)
1.36

---

Please provide measured composite z-score for the entries that follow.
Assayed System: Fibroblast growth factor 2 (Homo sapiens)
Procedure Summary: basic fibroblast growth factor binding to printed compounds – biochemical, small-molecule microarray, 635/667 nm fluorescence, primary screen (AID 1133)
Assay Setup: FGF2, fluorescence 635/667, higher = more signal
API doc: respond with a numeric literal and nothing else, no unit.

Which measured composite z-score belongs to "CCCC[C@@H](O)C1=C(COc2ccccc2)C[C@H]2C(=O)N(Cc3ccccc3)C(=O)[C@H]2[C@H]1CO" , tested on Fibroblast growth factor 2 (Homo sapiens)?
0.275

Which measured composite z-score belongs to COC(=O)C1=CC(CCCO)=CC(c2ccc(CN3CCCC3)cc2)N(Cc2cccc(OC(F)(F)F)c2)C=C1C(=O)OC (stereo not drawn) , tested on Fibroblast growth factor 2 (Homo sapiens)?
-0.292

Which measured composite z-score belongs to N#Cc1ccc(NN2C(C(O)c3ccc(Br)cc3)C=CC3C(=O)N(c4ccccc4)C(=O)C32)cc1 (stereo not drawn) , tested on Fibroblast growth factor 2 (Homo sapiens)?
0.127

Which measured composite z-score belongs to "C=CCNC(=O)[C@@H]1[C@H]2C(=O)O[C@H](c3ccccc3)[C@H](c3ccccc3)N2[C@H](c2ccccc2OCCO)[C@@]12C(=O)N(C(=O)OCCOC)c1ccc(C#CC3(O)CCCCCC3)cc12" , tested on Fibroblast growth factor 2 (Homo sapiens)?
0.924

Which measured composite z-score belongs to "NC(=O)NCC#Cc1ccc2c(c1)[C@]1(C(=O)N2)[C@H](C(=O)N2CCN(c3ncccn3)CC2)[C@H]2C(=O)O[C@H](c3ccccc3)[C@H](c3ccccc3)N2[C@@H]1c1ccc(O)cc1" , tested on Fibroblast growth factor 2 (Homo sapiens)?
1.3

Which measured composite z-score belongs to "CO[C@H]1O[C@H](CO)[C@@H](OC(=O)Nc2ccc(Br)cc2)[C@@H]2OC(=O)[C@@H](Cc3ccccc3)C/C=C/C[C@H](Cc3ccccc3)C(=O)O[C@@H]12" , tested on Fibroblast growth factor 2 (Homo sapiens)?
0.397

Which measured composite z-score belongs to "COCCCNC(=O)[C@@]1(CCC(=O)OC(C)(C)C)N=C(c2ccc(OCCCO)cc2)O[C@H]1c1ccccc1N=[N+]=[N-]" , tested on Fibroblast growth factor 2 (Homo sapiens)?
1.15

Which measured composite z-score belongs to C=CCC(OC(C)=O)[C@@H]1[C@@H](N(Cc2ccc(-c3cccc(C(F)(F)F)c3)o2)C(=O)Cc2ccc(OC)cc2)c2cc(OCCCO)ccc2N1C(=O)c1ccc(-c2ccccc2)cc1 (stereo partly drawn) , tested on Fibroblast growth factor 2 (Homo sapiens)?
0.119

Which measured composite z-score belongs to "O=c1cccc(-c2ccc([N+](=O)[O-])cc2)o1" , tested on Fibroblast growth factor 2 (Homo sapiens)?
1.05

Which measured composite z-score belongs to "CC(=O)NCCCC[C@@H]1NC(=O)[C@@H]2C[C@H](C(=O)NCCCCCN)[C@H](c3ccc(O)cc3)N2C1=O" , tested on Fibroblast growth factor 2 (Homo sapiens)?
1.24

Which measured composite z-score belongs to O=C1CS(=O)(=O)C(c2cccc([N+](=O)[O-])c2)N1c1ccccc1 (stereo not drawn) , tested on Fibroblast growth factor 2 (Homo sapiens)?
0.698

Which measured composite z-score belongs to "COc1ccc(C#Cc2ccc3c(c2)[C@]2(C(=O)N3)[C@H](c3ccc(OCCO)cc3)N3[C@H](c4ccccc4)[C@H](c4ccccc4)OC(=O)[C@H]3[C@@H]2C(=O)NC[C@H](O)c2ccccc2)cc1" , tested on Fibroblast growth factor 2 (Homo sapiens)?
1.05

Which measured composite z-score belongs to C=CCC(OC(C)=O)[C@@H]1[C@@H](N(Cc2ccc(-c3cccc(C(F)(F)F)c3)o2)C(=O)c2ccc(-c3ccccc3)cc2)c2cc(OCCCO)ccc2N1C(=O)Cc1ccc2ccccc2c1 (stereo partly drawn) , tested on Fibroblast growth factor 2 (Homo sapiens)?
-0.482

---

Procedure Summary: plasmodial surface anion channel blockers, osmotic lysis – cell-based, P. falciparum Indochina, OD700, 2 h, primary screen (AID 1155);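 note: lysis reports solute entry through the parasite surface anion channel PSAC; channel blockers reduce lysis of infected cells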
Assay Setup: P. falciparum Indochina infected erythrocytes, higher = more signal, called active from +8 up or from −8 down
Please provide measured z-score for the entries that follow.
API doc: respond with a numeric literal and nothing else, no unit.

Value lookup for z-score; key = "C=CC[C@@H](OC(=O)Nc1ccc(SC)cc1)c1ccc(O)c(F)c1"
6.56

Value lookup for z-score; key = CCCCN1CC=CC23O[C@@H]4/C=C\CCC(C)OC(=O)C4[C@H]2C(=O)N(CCCO)[C@@H]3C1=O (some centres undefined)
-0.0611

Value lookup for z-score; key = "COC(=O)[C@@]1(Cc2ccc(F)cc2)[C@H]2c3cc(C(=O)N(C)C)n(CCc4ccc(OC)c(Br)c4)c3C[C@H]2CN1C(=O)c1ccccc1"
-1.04

Value lookup for z-score; key = CCCCC(CC)C(O)C1C=CC2C(=O)N(c3ccccc3)C(=O)C2N1Nc1ccccc1F (centres undefined)
-0.686

---

Tested on: Inhibin beta A chain (activin A)
Procedure Summary: small molecules binding activin A – biochemical, small-molecule microarray, 635 nm fluorescence scan, primary screen (AID 1107);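 note: mouse activin A protein probed at 4.33 µg/mL on printed slides; score merges bound-protein fluorescence near 667 nm with spot signal-to-noise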
Assay Setup: INHBA, higher = more signal
Values of composite z-score greater than or equal to 0.2 map to true (1); values below map to false (0).

Hello, I need to know if "CCOC(=O)C[C@H]1[C@H](OC(=O)c2cc3ccccc3oc2=O)[C@@H](NC(=O)CC(C)C)c2cc(OCCCO)ccc2N1C(=O)c1ccc2ccccc2n1" has measured composite z-score not below 0.2. Thanks!
true (1)

Hello, I need to know if "CC(C)NC(=O)[C@@]1(C)c2ccccc2C(=O)N(Cc2ccc(OC(F)(F)F)cc2)[C@H]1c1ccc(CO)cc1" has measured composite z-score not below 0.2. Thanks!
false (0)

Hello, I need to know if "COC(=O)[C@@H]1N=C(c2ccc(OCCCO)cc2)O[C@@H]1C" has measured composite z-score not below 0.2. Thanks!
false (0)

Hello, I need to know if "COCCOC(=O)N1C(=O)[C@@]2(c3ccccc31)[C@H](C(=O)NC[C@H](O)c1ccccc1)[C@H]1C(=O)O[C@H](c3ccccc3)[C@H](c3ccccc3)N1[C@@H]2c1ccc(O)cc1" has measured composite z-score not below 0.2. Thanks!
false (0)

Hello, I need to know if CCCCCN1CC=CC23O[C@@H]4/C=C\CCCOC(=O)C4[C@H]2C(=O)N(C(C)CO)[C@@H]3C1=O (some centres not stated) has measured composite z-score not below 0.2. Thanks!
false (0)

Hello, I need to know if "COC(=O)[C@@]1(Cc2ccc(OC)cc2)[C@H]2c3cc(C(=O)N(C)C)n(Cc4ccc(C)o4)c3C[C@H]2CN1C(=O)c1ccccc1" has measured composite z-score not below 0.2. Thanks!
true (1)

Hello, I need to know if "CCOC(=O)C[C@H]1[C@H](OC(=O)c2ccc(C(=O)c3ccccc3)cc2)[C@@H](NC(=O)c2ccc3ccccc3n2)c2cc(OCCCO)ccc2N1C(=O)Cc1ccc(OC)cc1" has measured composite z-score not below 0.2. Thanks!
false (0)

The origin of these recorded values is PubChem BioAssay.
